This collection of values is drawn from ChEMBL document CHEMBL3885861.

Species: Rattus norvegicus
experimentSummary: Open TG-GATES - Regimen: Daily Repeat
Assay type: toxicity, organism-based, Sprague-Dawley
Parameters: regimen Daily Repeat, gender Male, age 6 weeks
conditionContext: in vivo, po, 0 mg/kg, […], tissue Kidney, route gavage, dose level Control, time 7 day
recordedEndpoint: KIDNEY_TOTAL (g)

# compound, recordedEndpoint, endpointResult
rows = [
    ("CCc1oc2ccccc2c1C(=O)c1cc(Br)c(O)c(Br)c1", "KIDNEY_TOTAL", 2.3),
    ("CCCCc1oc2ccccc2c1C(=O)c1cc(I)c(OCCN(CC)CC)c(I)c1", "KIDNEY_TOTAL", 2.2),
    ("O=NN(CCCl)C(=O)NC1CCCCC1", "KIDNEY_TOTAL", 2.3),
    ("CC[C@H]1[C@@H]2C[C@H]3[C@@H]4N(C)c5ccccc5[C@]45C[C@@H]([C@@H]2[C@H]5O)N3[C@@H]1O", "KIDNEY_TOTAL", 2.1),
    ("CN(C)C(=N)N=C(N)N", "KIDNEY_TOTAL", 2.1),
    ("OCCOCCN1CCN(C(c2ccccc2)c2ccc(Cl)cc2)CC1 (stereo unspecified) [HYDROXYZINE]", "KIDNEY_TOTAL", 2.3),
]
